Let's look at some molecules and their measured log10(GI50).
Test system: NCI-H23
assay.details: Growth inhibition of human NCI-H23 cells measured after 48 hrs by SRB assay
Format: functional
experimental.endpoint: log10(GI50) (log10 of the value in nM)

- smiles: "C[C@]12C[C@H](O)[C@H]3[C@@H](CCC4=C[C@@H](O[C@@H]5O[C@H](CO)[C@@H](O)[C@H](O)[C@H]5O)CC[C@@]43CO)[C@@]1(O)CC[C@@H]2c1ccc(=O)oc1"
  log10(GI50): 0.90
- smiles: "CCO[C@H]1C=C2CC[C@@H]3[C@H]([C@@H](O)C[C@]4(C)[C@@H](c5ccc(=O)oc5)CC[C@]34O)[C@@]2(C)CC1"
  log10(GI50): 3.13
- smiles: "C[C@]12CC[C@H](O)C=C1CC[C@@H]1[C@@H]2[C@@H](O)C[C@]2(C)[C@@H](c3ccc(=O)oc3)CC[C@]12O"
  log10(GI50): 2.82
- smiles: "C[C@]12CC[C@@H](O)C=C1CC[C@@H]1[C@@H]2[C@@H](O)C[C@]2(C)[C@@H](c3ccc(=O)oc3)CC[C@]12O"
  log10(GI50): 3.35
- smiles: "CC(=O)OC[C@H]1O[C@@H](O[C@@H]2C=C3CC[C@@H]4[C@H](C(=O)C[C@]5(C)[C@@H](c6ccc(=O)oc6)CC[C@]45O)[C@@]3(C)CC2)[C@H](OC(C)=O)[C@@H](OC(C)=O)[C@@H]1OC(C)=O"
  log10(GI50): 3.92
- smiles: "CC(=O)OC[C@H]1O[C@@H](O[C@@H]2C=C3CC[C@@H]4[C@H]([C@@H](O)C[C@]5(C)[C@@H](c6ccc(=O)oc6)CC[C@]45O)[C@@]3(C)CC2)[C@H](OC(C)=O)[C@@H](OC(C)=O)[C@@H]1OC(C)=O"
  log10(GI50): 2.26
- smiles: "CCO[C@@H]1C=C2CC[C@@H]3[C@H]([C@@H](O)C[C@]4(C)[C@@H](c5ccc(=O)oc5)CC[C@]34O)[C@@]2(C)CC1"
  log10(GI50): 1.93
- smiles: "C[C@]12CC[C@H](O[C@@H]3O[C@H](CO)[C@@H](O)[C@H](O)[C@H]3O)C=C1CC[C@@H]1[C@@H]2[C@@H](O)C[C@]2(C)[C@@H](c3ccc(=O)oc3)CC[C@]12O"
  log10(GI50): 1.43
- smiles: "C[C@]12CC[C@H]3[C@@H](CC[C@H]4C[C@@H](O)CC[C@@]43C=O)[C@@]1(O)CC[C@@H]2c1ccc(=O)oc1"
  log10(GI50): 3.23
